molecular target: Sterol 14-alpha demethylase (Trypanosoma cruzi (strain CL Brener)) (UniProt Q7Z1V1); test: TcCYP51 inhibitors, dose response, mechanism study for T. cruzi antiparasitic project, biochemical, recombinant enzyme (AID 1159558);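 note: enzyme in bacterial membranes with Anopheles gambiae CYP reductase and cytochrome b5 partners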; conditions: recombinant T. cruzi CYP51, BOMCC fluorescence
Sequence (Q7Z1V1 whole entry, looked up): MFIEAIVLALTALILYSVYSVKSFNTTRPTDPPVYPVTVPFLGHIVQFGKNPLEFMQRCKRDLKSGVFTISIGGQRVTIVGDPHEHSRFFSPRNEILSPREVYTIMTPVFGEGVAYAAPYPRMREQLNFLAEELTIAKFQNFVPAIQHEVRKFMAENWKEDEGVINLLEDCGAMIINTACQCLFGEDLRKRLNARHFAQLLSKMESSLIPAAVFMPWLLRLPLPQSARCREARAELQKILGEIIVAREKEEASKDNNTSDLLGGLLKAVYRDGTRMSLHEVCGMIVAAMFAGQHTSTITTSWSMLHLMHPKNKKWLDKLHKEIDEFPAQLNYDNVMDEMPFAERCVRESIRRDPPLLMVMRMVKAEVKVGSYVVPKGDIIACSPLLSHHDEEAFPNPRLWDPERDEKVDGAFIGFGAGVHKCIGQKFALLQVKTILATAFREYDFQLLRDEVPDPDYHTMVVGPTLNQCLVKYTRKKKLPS
Activity calls are given as the source filed them.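 Rule for the calls: active = IC50 against T. cruzi CYP51 below a set limit; inactive = the rest.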
Labels: active, inactive

>>> assigned_label("N#Cc1cccc(Nc2nccc(N3CCC(NS(=O)(=O)c4cccc(C#N)c4)CC3)n2)c1")
"active"
>>> assigned_label("CN(Cc1nnnn1C1CCN(Cc2ccc(-n3ccnc3)cc2)CC1)c1ccc(F)cc1F")
"active"
>>> assigned_label("Cc1cccc(NS(=O)(=O)c2cnc3sc(C)cn3c2=O)c1")
"inactive"
>>> assigned_label("Cc1nn(C2CCS(=O)(=O)C2)c(C)c1CN(C)C(=O)C=Cc1sc2ccccc2c1Cl (stereo unspecified)")
"active"
>>> assigned_label("CCN(CC)S(=O)(=O)c1ccc(C(=O)Nc2cc(C)nn2-c2nc(C)c(C)c(=O)[nH]2)cc1")
"inactive"
>>> assigned_label("COc1ccc(C2CC(c3ccccc3Cl)=NN2C(=O)CNC(=O)C2CCC2)cc1 (stereo unspecified)")
"active"
>>> assigned_label("COc1cnc2ccc(=O)n(CCN3CCC(NC(=O)c4ccc(Cl)cc4)CC3)c2c1")
"active"
>>> assigned_label("CN1CCCN(C(=O)c2ccc(N3CCCC3)cc2Cl)CC1")
"inactive"
>>> assigned_label("O=C(NCCc1ccn(-c2ccccc2)n1)C1CCCCC1")
"active"
>>> assigned_label("COc1cnc2ccc(=O)n(CCN3CCC(NC/C=C/c4cc(F)ccc4F)CC3)c2c1")
"active"
>>> assigned_label("COc1ccc(-c2nc3ccncc3c(=O)n2CCOc2ccccc2)cc1")
"active"
>>> assigned_label("Cc1ccc(S(=O)(=O)Nc2ccc(CN3CCN(C(=O)c4cccc(C#N)c4)CC3)cc2)cc1")
"inactive"
>>> assigned_label("c1ccc2[nH]c(-c3ccc(N4CCCC4)nc3)nc2c1")
"inactive"
>>> assigned_label("O=C(Nc1cccc(F)c1)N1CCC(Oc2cccc(-c3cccnc3)c2)CC1")
"active"
>>> assigned_label("COc1ccc(C(=O)NC2CCN(CCn3c(=O)ccc4ncc(F)cc43)CC2)cc1Cl")
"active"
>>> assigned_label("Cc1nc2c(-c3ncn[nH]3)cc(NC(=O)Cc3ccccc3)cn2c1C")
"active"
>>> assigned_label("O=C(CCCn1cnc([N+](=O)[O-])n1)Nc1cccc(Cl)c1")
"active"
>>> assigned_label("O=C(CCc1ccc(-c2ccccc2)o1)N1CCN(c2ccc(O)cc2)CC1")
"active"
>>> assigned_label("CCCCNc1nccc(-c2c(-c3ccc(F)cc3)nn3c(N4CCOCC4)cccc23)n1")
"inactive"
>>> assigned_label("CN(CC1CCCO1)S(=O)(=O)c1ccc(C(=O)Nc2nc(-c3ccccn3)cs2)cc1 (stereo unspecified)")
"active"
>>> assigned_label("COc1ccccc1-n1c(SCC(=O)Nc2ccc3c(c2)OCO3)nc2c(c1=O)SCC2")
"active"
>>> assigned_label("Cc1nn(-c2nc3ccccc3s2)c2c1C(c1ccc(OCC(N)=O)cc1)SCC(=O)N2 (stereo unspecified)")
"inactive"
>>> assigned_label("COc1cccc(C(=O)[C@H]2C[C@@H]2CN(Cc2cccnc2)Cc2cccnc2)c1")
"active"
>>> assigned_label("Cn1nccc1-c1cc(OC(CN)c2ccccc2)cnc1-c1ccco1 (stereo unspecified)")
"active"
>>> assigned_label("CN(Cc1cccnc1)Cc1ccc(N2CCN(C(=O)C3(c4ccc(Cl)cc4)CC3)CC2)nc1")
"active"
>>> assigned_label("CC(=O)Nc1cccc(Nc2ncnc3nc[nH]c23)c1")
"inactive"
>>> assigned_label("Cc1cc(NC(=O)c2ccc([N+](=O)[O-])s2)ccc1Br")
"active"
>>> assigned_label("CCC(=O)Nc1ccc(-c2nc3ccc(Cl)cc3[nH]2)cc1")
"inactive"
>>> assigned_label("COC(=O)c1ccc(-c2cnc3ccc(NCc4ccccn4)nn23)cc1")
"active"
>>> assigned_label("Cc1nn2c(NCCCO)c3c(nc2c1-c1cccs1)CCC3")
"active"
>>> assigned_label("O=C(NCC(c1cccnc1)N1CCc2ccccc2C1)C(=O)Nc1cccc(Cl)c1 (stereo unspecified)")
"active"
>>> assigned_label("O=C(Nc1nc(-c2ccccn2)cs1)c1ccc(S(=O)(=O)N2CCCCC2)cc1")
"active"
>>> assigned_label("O=C(CN1CCN(c2ccccn2)CC1)Nc1cc(S(=O)(=O)N2CCCCCC2)ccc1Cl")
"active"
>>> assigned_label("O=c1[nH]c(NCCCNCc2cc(Br)cc(Br)c2)nc2ccsc12")
"active"
>>> assigned_label("Cc1cc(-c2cccc3ccccc23)nc2nc(N)nc(N)c12")
"inactive"
>>> assigned_label("COc1ccc(C(=O)Nc2c(C)nn(COc3cccc(C(F)(F)F)c3)c2C)cc1")
"active"
>>> assigned_label("c1ccc(Nc2nc(-c3ccccn3)cc(N3CCOCC3)n2)cc1")
"inactive"
>>> assigned_label("Cc1[nH]nc2c1C(c1ccc(OCc3ccccc3F)cc1)SCC(=O)N2 (stereo unspecified)")
"inactive"
>>> assigned_label("O=C(CSc1nnc(-c2ccc3c(c2)OCO3)o1)N(Cc1ccco1)CC(F)(F)F")
"active"
>>> assigned_label("Cc1c(C(C)NC(=O)Nc2cccc(Cl)c2)sc2ncnn12 (stereo unspecified)")
"active"
>>> assigned_label("O=C1OCc2ccc(Nc3nccc(-c4cnn5ncccc45)n3)cc21")
"inactive"

====

target: Sterol 14-alpha demethylase (Trypanosoma cruzi (strain CL Brener)); assay: TcCYP51 inhibitors, dose response, mechanism study for T. cruzi antiparasitic project, biochemical, recombinant enzyme (AID 1159558);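 note: enzyme in bacterial membranes with Anopheles gambiae CYP reductase and cytochrome b5 partners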; conditions: recombinant T. cruzi CYP51, BOMCC fluorescence
Activity calls are given as the source filed them.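 The calls were made as follows: active = IC50 against T. cruzi CYP51 below a set limit; inactive = the rest.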
// reported IC50 for each item listed
QUANTITY MEASURED: IC50

>>> measured_value("CS(=O)(=O)c1ccccc1C(=O)N(Cc1ccccc1)c1ccccc1")
"20 µM"
>>> measured_value("O=C(CN(Cc1ccccn1)Cc1ccccn1)NC1Cc2ccccc2C1")
"79 µM"
>>> measured_value("CCOC(=O)c1cn[nH]c1S(=O)(=O)N1CCC1c1ccccc1 (stereo unspecified)")
"50 µM"
>>> measured_value("CCOc1ccc(NC(=O)c2ccc(NC(=O)NC3CCCCC3)cc2)cc1")
"> 100 µM (inactive)"
>>> measured_value("COc1cc(OC)cc(C(=O)N[C@@H](CC(C)C)C(=O)NC2(C#N)CC2)c1")
"> 100 µM (inactive)"
>>> measured_value("CS(=O)(=O)c1ccc(Nc2nccc(-c3cnn4ncccc34)n2)cc1")
"16 µM"
>>> measured_value("O=C(c1ccc(O)c(Cl)c1)N1CCN(c2cnccn2)CC1")
"> 100 µM (inactive)"
>>> measured_value("CC(=O)Nc1nc(-c2cc(C)ccc2C)c(C)s1")
"> 100 µM (inactive)"
>>> measured_value("N#Cc1cccc(CN2CCC(c3nc(-c4ccc(C(F)(F)F)nc4)no3)CC2)c1")
"> 100 µM (inactive)"
>>> measured_value("O=C(CN1CCC2(O)CCCCC2C1c1ccc2c(c1)OCO2)Nc1ccc(Cl)cc1Cl (stereo unspecified)")
"13 µM"
>>> measured_value("CCc1cccc(CC)c1-n1c(SCC(=O)NC(=O)NCc2ccco2)nnc1-c1cccnc1")
"1 µM"

====

target: Sterol 14-alpha demethylase (Trypanosoma cruzi (strain CL Brener)) (UniProt Q7Z1V1); assay: TcCYP51 inhibitors, dose response, mechanism study for T. cruzi antiparasitic project, biochemical, recombinant enzyme (AID 1159558);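 note: enzyme in bacterial membranes with Anopheles gambiae CYP reductase and cytochrome b5 partners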; settings: recombinant T. cruzi CYP51, BOMCC fluorescence
Calls of active or inactive are those of the source.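 How the source made its calls: active means IC50 against T. cruzi CYP51 below a set limit; inactive means the rest.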
QUANTITY MEASURED: IC50

>>> measured_value("O=C(CC1(O)C(=O)N(Cc2ccccc2)c2ccc(Br)cc21)c1cccnc1 (stereo not drawn)")
"4 µM"
>>> measured_value("O=C(NC1C(=O)N(c2ccccc2)C1c1cccnc1)c1ccc(Cl)s1 (stereo not drawn)")
"0.2 µM"
>>> measured_value("NC(=O)c1ccsc1NC(=O)c1ccc([N+](=O)[O-])s1")
"> 100 µM (inactive)"
>>> measured_value("COc1ccc(OC)c(NC(=O)c2ccc([N+](=O)[O-])o2)c1")
"10 µM"
>>> measured_value("COc1ccc(-c2cc(C)no2)cc1S(=O)(=O)Nc1ccc(F)c(Cl)c1")
"> 100 µM (inactive)"
>>> measured_value("Cc1c(Nc2cc(C3CC3)[nH]n2)ccc(C#N)c1Cl")
"20 µM"
>>> measured_value("COc1ccc(Nc2nc(-c3ccccn3)cs2)c(OC)c1")
"20 µM"
>>> measured_value("O=C(Nc1nc2cc(Cl)ccc2o1)c1cccc(Cl)c1")
"> 100 µM (inactive)"
>>> measured_value("O=C(NCC1CCCCC1)c1cc(=O)c2ccccc2o1")
"> 100 µM (inactive)"
>>> measured_value("COc1cccc(-c2c(C)nn(-c3nc(N)nc(-c4ccccn4)n3)c2N)c1")
"> 100 µM (inactive)"
>>> measured_value("COc1ccc(NC(=O)c2ccc(NC(=O)CN(c3ccccc3C)S(C)(=O)=O)cc2)cc1")
"6.3 µM"
>>> measured_value("O=C(NCCc1nc(-c2ccc(F)c(F)c2)n[nH]1)C1CCCCC1")
"25 µM"
>>> measured_value("O=C(NCCCn1cnc2ccccc21)c1ccc(NC(=O)c2ccco2)cc1")
"16 µM"
>>> measured_value("O=C(c1cccc(Nc2ncc(-c3ccc4c(c3)OCO4)cn2)c1)N1CCSC1")
"16 µM"
>>> measured_value("Clc1ccc(Sc2cnccc2N2CCOCC2)cc1")
"0.032 µM"
>>> measured_value("C=CCn1nc([N+](=O)[O-])nc1Oc1ccc(Cl)cc1Cl")
"20 µM"
>>> measured_value("O=C(CSc1ccc(-c2ccccn2)nn1)Nc1ccc(Cl)cc1")
"> 100 µM (inactive)"
>>> measured_value("Cc1cccnc1CN1CCN(CCCOc2ccc(-c3ccc(C(N)=O)cc3)cc2)CC1")
"> 100 µM (inactive)"
>>> measured_value("Fc1ccccc1N1C[C@H]2CCN(c3cccnc3)C[C@H]2C1")
"0.063 µM"
>>> measured_value("N#Cc1cc(-c2ccnc(Nc3cccc(CN4CCOCC4)c3)n2)ccc1NCCN")
"32 µM"
>>> measured_value("Cc1cc(Nc2cc(C3CC3)[nH]n2)nc(N2CCC[C@H]2C(N)=O)n1")
"> 100 µM (inactive)"
>>> measured_value("CC(C)COC(=O)Nc1ccc(N2CCC(CNS(=O)(=O)c3ccccc3)CC2)c(F)c1")
"2 µM"
>>> measured_value("COc1ccc(-c2cnc(NC(=O)c3cc(-c4ccccn4)n[nH]3)n2C)cc1")
"16 µM"
>>> measured_value("c1ccc(Nc2nc3ccccc3[nH]2)nc1")
"> 100 µM (inactive)"
>>> measured_value("CC1(C)CCC(=Cc2ccc(Cl)cc2)CC1(O)Cn1ccnc1 (stereo not drawn)")
"0.05 µM"
>>> measured_value("O=C(Nc1nc(-c2ccc(S(=O)(=O)N3CCOCC3)cc2)cs1)c1ccc([N+](=O)[O-])cc1")
"> 100 µM (inactive)"
>>> measured_value("O=C(NCc1ccc(Cl)cc1)C1CN(C(=O)c2ccc(F)cc2)CCS1 (stereo not drawn)")
"13 µM"
>>> measured_value("CC(=O)Nc1ccc(-c2ccnc(Nc3cccc(C#N)c3)n2)cc1")
"25 µM"
>>> measured_value("Cc1ccc2c(c1)-c1onc(C(=O)N3CCCCC3c3cccnc3)c1CO2 (stereo not drawn)")
"0.1 µM"
>>> measured_value("Cc1cc2cncn2c(C2CCCCN2C(=O)c2cccs2)n1 (stereo not drawn)")
"0.1 µM"
>>> measured_value("Cc1nn(-c2ccccc2)nc1CNC(=O)CN(Cc1ccccn1)Cc1ccccn1")
"25 µM"
>>> measured_value("Clc1ccc(C(CC2CCCCO2)Cn2cncn2)c(Cl)c1 (stereo not drawn)")
"0.25 µM"
>>> measured_value("COc1ccc2nccc([C@H](O)CN3CC[C@H](NC(=O)c4ccc(Br)cc4)[C@@H](O)C3)c2n1")
"6.3 µM"
>>> measured_value("Cc1ccc(S(=O)(=O)Cn2nnnc2C(c2cccnc2)N2CCN(c3ccccc3)CC2)cc1 (stereo not drawn)")
"0.2 µM"
>>> measured_value("CCS(=O)(=O)c1cccc(C(=O)Nc2nc(-c3ccccn3)cs2)c1")
"63 µM"
>>> measured_value("O=C(Nc1nc(-c2ccc(F)cc2)cs1)c1ccc([N+](=O)[O-])s1")
"50 µM"
>>> measured_value("Cc1nn(-c2nc3ccccc3[nH]2)c2c1C(c1ccc(O)cc1)CC(=O)N2 (stereo not drawn)")
"25 µM"
>>> measured_value("COc1cccc(Nc2cc(C)nc(-c3ccccn3)n2)c1")
"> 100 µM (inactive)"
>>> measured_value("CCN(CC)S(=O)(=O)c1ccc(OC)c(NC(=O)c2ccc([N+](=O)[O-])s2)c1")
"32 µM"
>>> measured_value("Nc1ncnc2c1ncn2[C@@H]1O[C@H](CO)C[C@H]1O")
"> 100 µM (inactive)"
>>> measured_value("O=C(Cn1cnc2c(-c3ccccc3)csc2c1=O)N1CCCCC1")
"40 µM"
>>> measured_value("N#Cc1ccccc1S(=O)(=O)N1CCN(C(=O)CNC(=O)c2ccc3c(c2)OCO3)CC1")
"79 µM"
>>> measured_value("Oc1c(-c2n[nH]c(Cc3ccc(Cl)cc3)n2)ncc2cccnc12")
"32 µM"
